# test-system: human DβH (Homo sapiens, UniProt P09172)
# Construct: SK-N-SH cells (ATCC HTB-11), a human neuroblastoma derived cell line, were used as a source of human DβH; host or cells: SK-N-SH cells
# Sequence (P09172 1-617): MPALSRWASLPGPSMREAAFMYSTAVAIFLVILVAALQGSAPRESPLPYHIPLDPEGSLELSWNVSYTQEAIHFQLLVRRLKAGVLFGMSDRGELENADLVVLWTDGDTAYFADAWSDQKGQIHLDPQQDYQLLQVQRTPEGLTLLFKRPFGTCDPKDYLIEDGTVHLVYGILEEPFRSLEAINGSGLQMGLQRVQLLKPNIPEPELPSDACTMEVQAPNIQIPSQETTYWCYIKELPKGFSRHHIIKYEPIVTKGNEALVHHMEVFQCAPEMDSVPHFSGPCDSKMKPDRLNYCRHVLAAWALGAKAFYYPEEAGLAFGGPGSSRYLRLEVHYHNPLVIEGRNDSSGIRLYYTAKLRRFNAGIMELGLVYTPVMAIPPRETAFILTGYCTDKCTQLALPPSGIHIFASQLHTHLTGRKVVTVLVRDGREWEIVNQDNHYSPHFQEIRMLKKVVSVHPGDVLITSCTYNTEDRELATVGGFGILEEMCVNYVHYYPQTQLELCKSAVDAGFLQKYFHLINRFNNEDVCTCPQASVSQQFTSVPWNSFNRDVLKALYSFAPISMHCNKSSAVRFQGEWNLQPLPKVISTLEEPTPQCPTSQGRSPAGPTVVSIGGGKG
# method-description: DβH activity (β-hydroxylation of dopamine to noradrenaline) in SK-N-SH cells
# Assay type: cell-based
# experimental-setup: SK-N-SH, 0.75 h; read-out: DβH activity in SK-N-SH cells, Mean ± SEM
Where a name gives a salt, the structure may show the parent alone.
Would you mind telling me the reported remaining activity at 5 µM of each entry?
Write it as a number; the unit % goes unstated.

[Q] Can you look up the measured remaining activity at 5 µM of Cl.NCCCc1c[nH]c(=S)n1[C@H]1CCc2c(F)cc(F)cc2C1 [Compound 5, hydrochloride] for me?
[A] 8.1

[Q] Proceed to CNCCc1c[nH]c(=S)n1[C@H]1COc2ccc(O)cc2C1 [Compound 27, hydrochloride]
[A] 15.5

[Q] Proceed to Cl.NCCc1c[nH]c(=S)n1[C@H]1COc2ccc(O)cc2C1 [Compound 16, hydrochloride]
[A] 0

[Q] Proceed to NCCc1c[nH]c(=S)n1[C@@H]1COc2c(F)cc(F)cc2C1 [Compound 9, hydrochloride]
[A] 50.2

[Q] Proceed to NCc1c[nH]c(=S)n1[C@H]1COc2ccc(O)cc2C1 [Compound 22, hydrochloride]
[A] 17.8

[Q] Proceed to Cl.NCCc1c[nH]c(=S)n1[C@H]1COc2c(F)cccc2C1 [Compound 6, hydrochloride]
[A] 6.9

[Q] Proceed to Cl.NCCc1c[nH]c(=S)n1[C@H]1COc2cc(F)c(F)cc2C1 [Compound 8, hydrochloride]
[A] 9.4

[Q] Proceed to Cl.NCCc1c[nH]c(=S)n1[C@H]1COc2ccccc2C1 [Compound 12, hydrochloride]
[A] 3

###

Would you mind telling me the reported remaining activity at 5 µM of each entry?
# test-system: human DβH (Homo sapiens)
# Construct: SK-N-SH cells (ATCC HTB-11), a human neuroblastoma derived cell line, were used as a source of human DβH; host or cells: SK-N-SH cells
# method-description: DβH activity (β-hydroxylation of dopamine to noradrenaline) in SK-N-SH cells
# Format: cell-based
# experimental-setup: SK-N-SH, 0.75 h; read-out: DβH activity in SK-N-SH cells, Mean ± SEM
# Method: SK-N-SH cells (ATCC HTB-11), a human neuroblastoma derived cell line, were used as a source of human DβH. SK-N-SH cells cultured in 24 well plates were preincubated for 20 min in a reaction medium containing 200 mM sodium acetate, 30 mM N-ethylmaleimide, 5 μM copper sulphate, 0.5 mg/ml catalase aqueous solution, 1 mM pargyline, 10 mM sodium fumarate and 20 mM ascorbic acid. […] During preincubation and incubation, the cells were continuously shaken and maintained at 37° C. […]
Counter-ions that a name gives are not always drawn.
Write it as a number; the unit % goes unstated.

[Q] Can you look up the measured remaining activity at 5 µM of COc1ccc2c(c1)C[C@@H](n1c(CCN)c[nH]c1=S)CO2 [Compound 23, hydrochloride] for me?
[A] 54.5

[Q] Proceed to Cl.Oc1ccc2c(c1)C[C@@H](n1c(CCNCc3ccccc3)c[nH]c1=S)CO2 [Compound 26, hydrochloride]
[A] 4.5

[Q] Proceed to Cl.NCCc1c[nH]c(=S)n1[C@H]1COc2c(F)cc(F)cc2C1 [Compound 4, hydrochloride]
[A] 3.3

[Q] Proceed to CNCCc1c[nH]c(=S)n1[C@H]1COc2c(F)cc(F)cc2C1.Cl [Compound 28, hydrochloride]
[A] 2.6

[Q] Proceed to COc1cc(Cl)c2c(c1)C[C@@H](n1c(CCN)c[nH]c1=S)CO2 [Compound 13, hydrochloride]
[A] 94

[Q] Proceed to NCCc1c[nH]c(=S)n1[C@H]1COc2ccc([N+](=O)[O-])cc2C1 [Compound 18, hydrochloride]
[A] 94.8

[Q] Proceed to NCCc1c[nH]c(=S)n1[C@H]1COc2c(cccc2[N+](=O)[O-])C1 [Compound 17, hydrochloride]
[A] 53.2

[Q] Proceed to COc1cccc2c1OC[C@H](n1c(CCN)c[nH]c1=S)C2.Cl [Compound 19, hydrochloride]
[A] 6.9

[Q] Proceed to NCCc1c[nH]c(=S)n1[C@H]1CCc2ccccc2C1 [Compound 20, hydrochloride]
[A] 16.8

[Q] Proceed to Cl.NCCc1c[nH]c(=S)n1[C@H]1CCc2c(F)cc(F)cc2C1 [Compound 2, hydrochloride]
[A] 1.6

[Q] Proceed to NCc1c[nH]c(=S)n1[C@H]1CCc2c(F)cc(F)cc2C1 [Compound 1, nepicastat, reference compound]
[A] 0

[Q] Proceed to Cl.NCCc1c[nH]c(=S)n1[C@H]1COc2c(cc(F)c(F)c2F)C1 [Compound 10, hydrochloride]
[A] 8.2

[Q] Proceed to CC(=O)Nc1ccc2c(c1)C[C@@H](n1c(CCN)c[nH]c1=S)CO2 [Compound 14, hydrochloride]
[A] 77.9

[Q] Proceed to Cl.NCCc1c[nH]c(=S)n1[C@H]1COc2ccc(F)cc2C1 [Compound 7, hydrochloride]
[A] 8

[Q] Proceed to COc1ccc2c(c1)C[C@@H](n1c(CCNCc3ccccc3)c[nH]c1=S)CO2 [Compound 25, hydrochloride]
[A] 66

[Q] Proceed to CNCCc1c[nH]c(=S)n1[C@H]1COc2ccccc2C1.Cl [Compound 29, hydrochloride]
[A] 2.2

###

# test-system: human DβH (Homo sapiens, UniProt P09172)
# Construct: SK-N-SH cells (ATCC HTB-11), a human neuroblastoma derived cell line, were used as a source of human DβH; host or cells: SK-N-SH cells
# method-description: DβH activity (β-hydroxylation of dopamine to noradrenaline) in SK-N-SH cells
# Format: cell-based
# experimental-setup: SK-N-SH, 0.75 h; read-out: DβH activity in SK-N-SH cells, Mean ± SEM
Structures can show the parent of a compound that is named as a salt.
Would you mind telling me the reported remaining activity at 5 µM of each entry?
Write it as a number; the unit % goes unstated.

[Q] Can you look up the measured remaining activity at 5 µM of NCCc1c[nH]c(=S)n1[C@H]1COc2cc(Cc3ccccc3)c(O)cc2C1 [Compound 15, hydrochloride] for me?
[A] 86.1

[Q] Proceed to COc1cc(Cl)cc2c1OC[C@H](n1c(CCN)c[nH]c1=S)C2 [Compound 11, hydrochloride]
[A] 36.7

[Q] Proceed to Cl.NCc1c[nH]c(=S)n1[C@H]1COc2ccccc2C1 [Compound 24, hydrochloride]
[A] 0

[Q] Proceed to NCCc1c[nH]c(=S)n1[C@H]1COc2c(O)cccc2C1 [Compound 21, hydrochloride]
[A] 125

[Q] Proceed to Cl.NCc1c[nH]c(=S)n1[C@H]1COc2c(F)cc(F)cc2C1 [Compound 3, hydrochloride]
[A] 4.1

###

# test-system: human DβH (Homo sapiens, UniProt P09172)
# Construct: SK-N-SH cells (ATCC HTB-11), a human neuroblastoma derived cell line, were used as a source of human DβH
# method-description: DβH activity (β-hydroxylation of dopamine to noradrenaline) in SK-N-SH cells
# experimental-setup: read-out: IC50 for inhibition of DβH in SK-N-SH cells
# Experimental: SK-N-SH cells (ATCC HTB-11), a human neuroblastoma derived cell line, were used as a source of human DβH. SK-N-SH cells cultured in 24 well plates were preincubated for 20 min in a reaction medium containing 200 mM sodium acetate, 30 mM N-ethylmaleimide, 5 μM copper sulphate, 0.5 mg/ml catalase aqueous solution, 1 mM pargyline, 10 mM sodium fumarate and 20 mM ascorbic acid. […] During preincubation and incubation, the cells were continuously shaken and maintained at 37° C. […]
value-type: IC50 (nM)
Write it as a number; the unit nM goes unstated.

[Q] Can you look up the measured IC50 of NCc1c[nH]c(=S)n1[C@H]1CCc2c(F)cc(F)cc2C1 [Compound 1, nepicastat, reference compound] for me?
[A] 36

[Q] Proceed to Cl.NCCc1c[nH]c(=S)n1[C@H]1COc2c(F)cc(F)cc2C1 [Compound 4, hydrochloride]
[A] 105

[Q] Proceed to Cl.NCc1c[nH]c(=S)n1[C@H]1COc2c(F)cc(F)cc2C1 [Compound 3, hydrochloride]
[A] 91

[Q] Proceed to Cl.NCCc1c[nH]c(=S)n1[C@H]1CCc2c(F)cc(F)cc2C1 [Compound 2, hydrochloride]
[A] 60
